These measurements were taken from PubChem BioAssay AID1159580.

# test: chemical genetic growth profiling, strain panel (AID 1159580);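 further: tested at 20 µM; growth read once vehicle control cultures reached saturation at 30 °C; 1 = growth at the plate median or of vehicle wells; lower values mean less growth of the strain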
# particulars: S. cerevisiae deletion strains, growth OD, locus YBR160W, strain CDC28, active compounds read low
Screen size: about 5,500 compounds; about 2,000 (36%) were called active. About 18% were inconclusive and are not listed. The list shows a part of the results.
readout-kind: normalized growth
Provide a numeric answer; units are not to be included.

The examples below pair each entry with its known result.
INSERT INTO assay_data (compound, observed_result) VALUES
  ('Cc1nc(-c2cccnc2)nc(NCc2ccccc2)c1Cl', 0.955),
  ('O=[N+]([O-])c1ccc(S(=O)(=O)c2ccccc2)nc1S(=O)(=O)c1ccccc1', 0.915),
  ('Fc1cccc(Cl)c1CSc1n[nH]c(-c2cc(C(F)(F)F)cc(C(F)(F)F)c2)n1', 0.977),
  ('CC(C)Cc1ccc(C(C)C(=O)Nc2nn(C)c3ccccc23)cc1 (stereo unspecified)', 0.984);

Tell us which normalized growth value is on record for O=C(Nc1ccccc1Sc1ccc([N+](=O)[O-])cc1[N+](=O)[O-])C(Cl)(Cl)Cl
0.983

Give the reported normalized growth for this compound. O=S(=O)(c1ccc(Cl)cc1)N(Cc1cccnc1)Cc1ccc(Cl)cc1Cl
0.969

Look up and state reported normalized growth for COC(=O)c1cnn(-c2c(Cl)cccc2Cl)c1C=C(C#N)C#N
0.955

For the compound Clc1cc(Cl)cc(-c2nc(SCc3ccc(Cl)cc3Cl)n[nH]2)c1 , give its measured normalized growth value.
0.991

Respond only with normalized growth recorded for Cc1nc(-c2ccccn2)nc(N(C)Cc2ccccc2)c1Cl
0.968

Answer with the recorded normalized growth of Brc1ccc2[nH]c3c(c2c1)CCC3 only.
0.949

Indicate its recorded normalized growth; the compound in question is O=C(NCC(c1ccccc1)c1c[nH]c2ccccc12)c1ccc(C(F)(F)F)cc1 (stereo unspecified)
0.981

Name the recorded normalized growth of the compound listed here: O=C(Nc1ccc(Cl)cc1)SCc1c(Cl)cccc1Cl
0.988

Tell me its normalized growth given CCOC(=O)c1cc(CC)sc1NC(=O)c1ccc([N+](=O)[O-])o1 as the entry.
1

Quote normalized growth reported for CCCc1nc(-c2ccccn2)[nH]c(=O)c1CC1CC1 please.
0.96

Give a short answer stating reported normalized growth for CC(C)(C)C(=O)N(Cc1cccnc1)Cc1ccc(Cl)cc1Cl .
0.995

State its normalized growth for this compound: O=S(=O)(NC(=S)Nc1ccc(Cl)c(Cl)c1)c1ccccc1
1

* * *

# test: chemical genetic growth profiling, strain panel (AID 1159580);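 further: tested at 20 µM; growth read once vehicle control cultures reached saturation at 30 °C; 1 = growth at the plate median or of vehicle wells; lower values mean less growth of the strain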
# particulars: S. cerevisiae deletion strains, growth OD, locus YOR231W, strain MKK1
Hit rate of the full screen: of about 5,500 compounds, about 2,000 (36%) were called active. Another 18% or so got no clear call; they are omitted. Rule as the data show it: active = normalized growth mostly below about 0.91 (no sharp cut-off); inconclusive = no clear call, values can overlap the other calls; inactive = mostly above about 0.92. Some of the results follow.
The reply should be one of these categories: active, inactive

Reference set, count: 2
INSERT INTO results (compound, cat) VALUES
  ('O=C(NCCc1ccncc1)c1ccc(Cl)c(Cl)c1', 'inactive'),
  ('Cc1ccc(S(=O)(=O)NC(=O)NN2CC3CCCC3C2)cc1 (stereo not drawn)', 'inactive');

In this assay, the call recorded for CNCc1ccccc1 was what?
inactive

Record lookup: outcome of this test for C#C[C@]1(O)CCC2C3CCC4=CC(=O)CC[C@@H]4C3CC[C@@]21CC (stereo partly drawn) ?
inactive

Please share the test call associated with C/C=C(/C)C(=O)O[C@@H]1[C@H](OC(C)=O)[C@@]2(CO)C(CC1(C)C)C1=CCC3[C@@]4(C)CC[C@H](O[C@@H]5O[C@H](C(=O)O)[C@@H](O[C@@H]6O[C@H](CO)[C@@H](O)[C@H](O)[C@H]6O)[C@H](O)[C@H]5O[C@@H]5O[C@H](CO)[C@@H](O)[C@H](O)[C@H]5O)[C@](C)(CO)C4CC[C@@]3(C)[C@]1(C)C[C@H]2O (stereo partly drawn) .
inactive

Query: recorded result category for NNC(=O)c1ccncc1 in this test
inactive
